Tested on: OCI-AML2;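 also: after 48 h exposure read by CellTiter-Glo luminescence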
assayProcedure: cell viability relative to vehicle control; higher = less cytotoxic
conditionLabel: 10 µM; SRSF2 genotype: wt/wt
Counter-ions that a name gives are not always drawn.
measure: cell viability (%)
Lab book: enter the figure in %, no units written.

# query: cell viability of entry N#Cc1ccc(-c2csc(NN=C3CCCC3)n2)cc1
72.3

Which cell viability is listed for CCN1CC(CCN2CCOCC2)C(c2ccccc2)(c2ccccc2)C1=O (stereo not drawn) [Doxapram HCl] ?
95.4

# input compound: C=C1[C@H](OC(=O)/C=C(\C)CC)C[C@@H](C(C)C)[C@@H]2[C@@H]([C@@H](C)OC(C)=O)C(=O)C[C@@H]12 ; wanted: its cell viability
77.6

Find the recorded cell viability belonging to CC(=O)N1CCN(c2ccc(NC(=O)Cc3cnc(-c4ccnc(F)c4)c(C)c3)nc2)CC1 and report it.
94.6

Any idea what its cell viability is? The compound is CC1(C)C2CCC1(C)C(O)C2 (stereo not drawn)
105

Give the measured cell viability of O=c1c2ccccc2oc2ccccc12 [Xanthone (Genicide)] .
96.4

Look up cell viability: O=c1ccn(C2OC(CO)C(O)C2O)c(=O)[nH]1 (stereo not drawn)
95.4

Quick check: cell viability of Cn1cc(C2=C(c3cccc(N)c3)C(=O)NC2=O)c2ccccc21 ?
101

What value of measured cell viability is listed for COc1ccc(S(=O)(=O)Nc2cc(-c3c(O)ccc4ccccc34)c(O)c3ccccc23)cc1 ?
0.35

What value of cell viability has been recorded for this entry: O=C(NCc1cccc(O)c1)Nc1nc(-c2ccncc2)cs1
27.6

Requested read-out: cell viability. Entry: CCOc1cc(C(=O)N2CCC(N3CCN(C)CC3)CC2)ccc1Nc1ncc2c(n1)N(C1CCCC1)c1ccccc1C(=O)N2C
10.6

Which cell viability value belongs to C[C@H](CC(=O)C[C@@H](C)[C@H]1C[C@H](O)[C@@]2(C)C3=C(C(=O)C[C@]12C)[C@@]1(C)CCC(=O)C(C)(C)[C@@H]1C[C@@H]3O)C(=O)O ?
111

Sample O=C(Nc1ccc(O)c(C(=O)O)c1)c1cccc(NC(=O)c2ccco2)c1 — what was its cell viability?
105

Looking for the measured cell viability of CC1=C(C(=O)OC(C)C)C(c2cccc([N+](=O)[O-])c2)C(C(=O)OC2CN(C(c3ccccc3)c3ccccc3)C2)=C(N)N1 (stereo not drawn) , can you help?
58

Value lookup for cell viability; key = CC(COc1ccccc1)N(CCCl)Cc1ccccc1 (stereo not drawn) [Phenoxybenzamine HCl]
62.1

State the recorded cell viability for this entry: OC(Cn1cncn1)(Cn1cncn1)c1ccc(F)cc1F
95.7

Reported cell viability, compound Cc1ccc(C(C)C)cc1O : ____
100

Query: cell viability; subject: NC(=O)c1ccccn1 [Picolinamide]
110

Quick one: cell viability of Cc1cccc(CN2CCN(C(c3ccccc3)c3ccc(Cl)cc3)CC2)c1 (stereo not drawn) [Meclizine dihydrochloride] ?
83.2

Dear colleague, I am looking for the recorded cell viability of the following compound: CCC(C(=O)O)c1ccc(N2Cc3ccccc3C2=O)cc1 (stereo not drawn)
98.3

Reported cell viability, compound Cc1cccc(Nc2ccccc2C(=O)O)c1C : ____
101

So what's the measured cell viability for this one? CC(C)(C)NC(=O)N[C@H](C(=O)N1C[C@H]2[C@@H]([C@H]1C(=O)NC(CC1CCC1)C(=O)C(N)=O)C2(C)C)C(C)(C)C (stereo partly drawn)
88.9

Returns the measured cell viability for the input compound. Input: C/C(=C\C(=O)OCCCCCCCCC(=O)O)C[C@@H]1OC[C@H](C[C@@H]2O[C@H]2[C@@H](C)[C@H](C)O)[C@@H](O)[C@H]1O [Mupirocin calcium]
93.5

Field request: cell viability | item: COc1ccccc1OCC(O)CN1CCN(CC(=O)Nc2c(C)cccc2C)CC1 (stereo not drawn) [Ranolazine dihydrochloride]
111

What value of cell viability has been reported for the following compound? C/C1=C2N=C(/C=C3N=C(/C(C)=C4\[N-]C(C(CC(N)=O)C4(C)CCC(=O)NCC(C)OP(=O)([O-])OC4C(CO)OC(n5cnc6cc(C)c(C)cc65)C4O)C4(C)N=C1C(CCC(N)=O)C4(C)CC(N)=O)C(CCC(N)=O)C\3(C)C)C(CCC(N)=O)C/2(C)CC(N)=O.[CH3-].[Co+3] (stereo not drawn)
97

Any idea what cell viability was measured for COc1ccc2c(c1)c(CC(=O)O)c(C)n2C(=O)c1ccc(Cl)cc1 [Indometacin Sodium] ?
110

Look up cell viability for this compound: COc1ccc([C@]2(C#N)CC[C@@H](C(=O)O)CC2)cc1OC1CCCC1
102

Find the recorded cell viability belonging to N[C@@H]1CCCCN(c2c(F)cc3c(=O)c(C(=O)O)cn(C4CC4)c3c2Cl)C1 [Besifloxacin HCl (Besivance)] and report it.
95.6

Given the compound CC(C)C[C@H](NC(=O)[C@@H](NC(=O)c1cccc(-c2ccccc2)n1)[C@@H](C)O)B(O)O , what is its reported cell viability?
2.11

Report cell viability for CCCCC(=O)OCC(=O)[C@H]1[C@H](C)C[C@H]2[C@@H]3C[C@H](F)C4=CC(=O)C=C[C@]4(C)[C@@]3(F)[C@@H](O)C[C@@]21C [Diflucortolone valerate] please.
118

Entry under review: O=C1CCc2c(ccc3ccccc23)O1 . Reported cell viability?
102

Quick check: cell viability of Clc1ccc(C(c2ccccc2Cl)C(Cl)Cl)cc1 (stereo not drawn) ?
107

// query cell viability value for entry CN(C)CCOc1ccc(/C(=C(/CCCl)c2ccccc2)c2ccccc2)cc1 [Toremifene Citrate (Fareston, Acapodene)]
51.7
